Examples of compounds with documented remaining at 0.5 h follow.
- assayDetails: Stability in rat serum assessed as parent compound remaining measured after 30 mins by LC-MS analysis
- Format: ADME, cell-free
- conditions: read-out: Stability
Hi! Could you send only the number? It should be in %, unit omitted.

Worked examples, 4 compounds total:
INSERT INTO measurements (compound, propertymeasured, unittext, valuemeasured) VALUES
  ('CC(C)(C)OC(=O)NC(c1ccc(Cl)cc1)C(F)(F)C(=O)c1ccc(Cl)cc1 (stereo not drawn)', 'remaining at 0.5 h', '%', 83),
  ('O=C(c1ccc2ccccc2c1)C(F)(F)C(O)/C=C/c1ccccc1 (stereo not drawn)', 'remaining at 0.5 h', '%', 90.5),
  ('COc1cc2c(cc1OC)C(C(F)(F)C(=O)c1ccc(C(F)(F)F)cc1)NCC2 (stereo not drawn)', 'remaining at 0.5 h', '%', 97.5),
  ('COc1ccc(C(NC(=O)OC(C)(C)C)C(F)(F)C(=O)c2ccc3ccccc3c2)cc1 (stereo not drawn)', 'remaining at 0.5 h', '%', 61);

Data request: Which remaining at 0.5 h reading was recorded for the compound "O=C(c1ccc2ccccc2c1)C(F)(F)CO" ?
Data returned: 100

Data request: Given the compound O=C(C12CC3CC(CC(C3)C1)C2)C(F)(F)C(O)c1ccc(Cl)cc1 (stereo not drawn) , what is its reported remaining at 0.5 h?
Data returned: 48.5

Data request: Reported remaining at 0.5 h, compound CC(C)(C)OC(=O)NC(c1cccc(Br)c1)C(F)(F)C(=O)c1ccc2ccccc2c1 (stereo not drawn) : ____
Data returned: 35.5

Data request: Returns the measured remaining at 0.5 h for the input compound. Input: O=C(c1ccc2ccccc2c1)C(F)(F)C(NCc1ccccc1)c1ccccc1 (stereo not drawn)
Data returned: 85

Data request: For the compound shown here, O=C(c1ccc(Cl)cc1)C(F)(F)C(O)c1ccccc1 (stereo not drawn) , give the reported remaining at 0.5 h.
Data returned: 97

Data request: Request the reported remaining at 0.5 h associated with CC(C)(C)OC(=O)NC(c1ccc(Cl)cc1)C(F)(F)C(=O)c1ccc2c(c1)OCO2 (stereo not drawn)
Data returned: 89

Data request: Value lookup for remaining at 0.5 h; key = COc1ccc(C(O)C(F)(F)C(=O)C23CC4CC(CC(C4)C2)C3)cc1 (stereo not drawn)
Data returned: 66.5

Data request: Entry CC(C)(C)OC(=O)NC(c1cccc(Br)c1)C(F)(F)C(=O)c1ccc(Cl)cc1 (stereo not drawn) : reported remaining at 0.5 h = ?
Data returned: 100

Data request: Look at this compound and give its reported remaining at 0.5 h. CC(C)(C)OC(=O)NC(c1ccc(C(F)(F)F)cc1)C(F)(F)C(=O)c1ccc2ccccc2c1 (stereo not drawn)
Data returned: 48.5

Data request: So what does the record say about remaining at 0.5 h for COc1ccc(C(Nc2ccc(F)cc2)C(F)(F)C(=O)c2ccc3ccccc3c2)cc1 (stereo not drawn) ?
Data returned: 76

Data request: What value of remaining at 0.5 h has been recorded for this entry: CC(=O)c1ccc(C(O)C(F)(F)C(=O)C23CC4CC(CC(C4)C2)C3)cc1 (stereo not drawn)
Data returned: 73

Data request: Look up remaining at 0.5 h for this compound: CC(C)(C)NC(c1ccccc1)C(F)(F)C(=O)c1ccc2ccccc2c1 (stereo not drawn)
Data returned: 98

Data request: What measured remaining at 0.5 h goes with O=C(c1cccc(SCc2ccccc2)c1)C(F)(F)C(NCc1ccccc1)c1ccccc1 (stereo not drawn) ?
Data returned: 97

Data request: Given the compound COc1ccc(C(Nc2ccccc2)C(F)(F)C(=O)c2ccc3ccccc3c2)cc1 (stereo not drawn) , what is its reported remaining at 0.5 h?
Data returned: 100

Data request: Which measured remaining at 0.5 h value corresponds to O=C(c1ccc2ccccc2c1)C(F)(F)C(O)c1ccc(F)cc1 (stereo not drawn) ?
Data returned: 96.5
